- system: Protein deacetylase HDAC6 (Homo sapiens, UniProt Q9UBN7)
- Sequence (Q9UBN7 whole entry): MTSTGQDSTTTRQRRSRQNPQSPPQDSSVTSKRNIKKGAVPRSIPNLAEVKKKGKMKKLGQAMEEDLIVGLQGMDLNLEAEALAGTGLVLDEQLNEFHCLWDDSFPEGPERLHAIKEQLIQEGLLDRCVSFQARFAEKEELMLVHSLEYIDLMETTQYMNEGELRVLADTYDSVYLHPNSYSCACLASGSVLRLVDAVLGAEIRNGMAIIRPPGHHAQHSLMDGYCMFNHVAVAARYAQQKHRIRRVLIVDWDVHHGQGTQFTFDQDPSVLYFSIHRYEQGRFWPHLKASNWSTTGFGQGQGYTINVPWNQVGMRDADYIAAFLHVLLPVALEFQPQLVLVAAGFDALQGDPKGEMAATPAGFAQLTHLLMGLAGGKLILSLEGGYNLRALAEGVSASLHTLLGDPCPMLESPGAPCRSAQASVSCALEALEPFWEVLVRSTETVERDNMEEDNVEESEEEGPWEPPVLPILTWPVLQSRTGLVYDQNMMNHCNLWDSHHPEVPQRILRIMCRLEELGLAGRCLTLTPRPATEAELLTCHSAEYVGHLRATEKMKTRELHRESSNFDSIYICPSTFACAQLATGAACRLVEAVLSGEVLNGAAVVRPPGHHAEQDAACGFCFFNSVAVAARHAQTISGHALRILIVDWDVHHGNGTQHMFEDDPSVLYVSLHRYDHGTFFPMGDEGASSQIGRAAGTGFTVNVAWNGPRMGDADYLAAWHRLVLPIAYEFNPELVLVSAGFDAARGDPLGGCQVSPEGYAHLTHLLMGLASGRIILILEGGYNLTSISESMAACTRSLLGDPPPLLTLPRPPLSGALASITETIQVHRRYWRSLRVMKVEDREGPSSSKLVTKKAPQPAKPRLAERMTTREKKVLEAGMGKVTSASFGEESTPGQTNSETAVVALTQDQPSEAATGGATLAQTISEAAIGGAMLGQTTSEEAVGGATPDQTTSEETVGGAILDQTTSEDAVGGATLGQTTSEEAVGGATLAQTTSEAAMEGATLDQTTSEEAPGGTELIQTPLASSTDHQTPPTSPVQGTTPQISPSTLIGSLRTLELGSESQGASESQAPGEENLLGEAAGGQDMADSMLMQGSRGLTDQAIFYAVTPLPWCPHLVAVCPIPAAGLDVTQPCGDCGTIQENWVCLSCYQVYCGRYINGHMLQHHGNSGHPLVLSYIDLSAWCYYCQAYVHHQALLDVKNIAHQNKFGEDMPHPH
pIC50: −log10 of the molar value.
The compounds below each have a reported pIC50 tested on Protein deacetylase HDAC6 (Homo sapiens, UniProt Q9UBN7); the values come from various publications.

- compound: "O=C(NO)c1coc(-c2cccc(-c3ccccc3)c2)n1"
  result_comparator: "="
  pIC50: 6.30
- compound: "CC(C)Cc1c(OCCOc2cccc(/C=C/C(=O)NO)c2)ccc2c1OC(=O)CC2"
  result_comparator: "="
  pIC50: 8.22
- compound: "O=C(NO)c1ccc(C(=O)Nc2n[nH]c3cc(-c4cccc(Cl)c4Cl)ccc23)cc1"
  result_comparator: "="
  pIC50: 6.80
- compound: "CN1C(=O)CCC[C@H]1C(=O)N[C@@H](CCCCCS)C(=O)Nc1ccccc1"
  result_comparator: "="
  pIC50: 8.52
- compound: "CCC(=O)CCCCC[C@@H]1NC(=O)[C@H]2CC23CCN(CCCCN2C4CCC2c2c(cccc24)-c2cnc1[nH]2)CC3 (some centres undefined)"
  result_comparator: "<"
  pIC50: 6.05
- compound: "CN(Cc1ccccc1)C(=O)c1ccc(C(=O)C(F)(F)F)s1"
  result_comparator: "="
  pIC50: 6.64
- compound: "O=C(NO)c1ccc(/C=C/c2ccnc(-c3cc(F)ccc3O)c2)cc1"
  result_comparator: "="
  pIC50: 6.89
- compound: "COc1ccc([C@H]2[C@H](COC(=O)CCC(=O)NO)C(=O)N2c2cc(OC)c(OC)c(OC)c2)cc1O"
  result_comparator: "="
  pIC50: 5.62
- compound: "O=C(/C=C/c1ccc2c(c1)C(=O)CC1(CCN(CCc3ccccc3)CC1)O2)NO"
  result_comparator: "="
  pIC50: 6.80
- compound: "CC[C@H]1OC(=O)[C@H](C)C(=O)[C@H](C)[C@@H](O[C@@H]2O[C@H](C)C[C@H](N(C)Cc3ccc(-c4cn(CCCCCCC(=O)NO)nn4)cc3)[C@H]2O)[C@](C)(OC)C[C@@H](C)C2=NCCN3C(=O)O[C@@]1(C)[C@H]3[C@H]2C"
  result_comparator: "="
  pIC50: 6.14
- compound: "O=C(CCCCCCC(=O)Nc1ccc(-c2ccnc(Nc3ccc(N4CCOCC4)cc3)n2)cc1)NO"
  result_comparator: "="
  pIC50: 8.92
- compound: "Nc1cccc(-c2cc(C(=O)NCCCCC(=O)NO)no2)c1"
  result_comparator: "="
  pIC50: 7.14
- compound: "O=C(/C=C/c1ccc(NCCCn2cc(-c3ncnc4[nH]ccc34)cn2)cc1)NO"
  result_comparator: "="
  pIC50: 6.83
- compound: "O=C(/C=C/c1ccc(C(F)(F)F)cc1)NO"
  result_comparator: "="
  pIC50: 6.74
- compound: "CC(C)S(=O)(=O)c1ccccc1Nc1nc(Nc2ccc(C(=O)NCCCCCCC(=O)NO)cc2)ncc1Cl"
  result_comparator: "="
  pIC50: 8.17
- compound: "O=C(CCCCCCn1cc(-c2ccc3ncnc(Nc4ccc(Br)cc4F)c3c2)nn1)NO"
  result_comparator: "="
  pIC50: 8.37
- compound: "O=C(NO)c1coc(-c2ccc(Cl)cc2)n1"
  result_comparator: "="
  pIC50: 7.09
- compound: "CCC(=O)CCCCC[C@H](NC(=O)[C@H]1CC12CCN(CC)CC2)c1[nH]c2nc1C(=O)NCCC/C=C\\c1cccc-2c1"
  result_comparator: "<"
  pIC50: 6.05
- compound: "CCN(CCc1ccc(C(=O)NO)cc1)c1nc(N)n2nc(-c3ccco3)nc2n1"
  result_comparator: "="
  pIC50: 7.66
- compound: "O=C(NO)c1ccc2nc[nH]c2c1"
  result_comparator: "="
  pIC50: 5.36
- compound: "Nc1nc2c(cnn2CCCCCC(=O)NO)c2nc(-c3ccco3)nn12"
  result_comparator: "="
  pIC50: 7.82
- compound: "COc1ccc(F)cc1-c1ccc2c(NC(=O)c3ccc(C(=O)NO)cc3)n[nH]c2c1"
  result_comparator: "="
  pIC50: 7.19
- compound: "O=C(NO)c1ccc(CN2CCC3(CC2)CN(C(=O)c2ccccc2)c2ccccc23)cc1"
  result_comparator: "="
  pIC50: 6.81
- compound: "O=C(CCCCCn1cc(-c2ccc3ncnc(Nc4ccc(OCc5nccs5)c(Cl)c4)c3c2)nn1)NO"
  result_comparator: "="
  pIC50: 7.84
- compound: "COc1ccc(Nc2nc(C)nc3ccccc23)cc1OCCCC(=O)NO"
  result_comparator: "<"
  pIC50: 6.00
- compound: "O=C(NO)c1ccc2c(c1)CN(C(=O)/C(=C/c1ccc(F)cc1F)c1ccc(F)cc1)CC2"
  result_comparator: ">"
  pIC50: 9.00
- compound: "O=C(NO)c1ccc(CNC(=O)c2ccc3cccc(OCc4ccc(F)cc4)c3n2)cc1"
  result_comparator: "="
  pIC50: 7.42
- compound: "O=C(CCCCCn1cc(Nc2ncc3ccn(Cc4cccc(F)c4)c3n2)cn1)NO"
  result_comparator: "="
  pIC50: 7.86
- compound: "Nc1nc(NCCc2ccc(/C=C/C(=O)NO)cc2)nc2nc(-c3ccco3)nn12"
  result_comparator: "="
  pIC50: 7.16
- compound: "CCCCCCC(CCCC(=O)NO)CCC(=O)Nc1ccccc1 (centres undefined)"
  result_comparator: "="
  pIC50: 6.39
- compound: "O=CN(O)CCCCCNC(=O)c1ccc2ccccc2c1"
  result_comparator: "="
  pIC50: 6.22
- compound: "COc1cc2nc(Nc3ccc(NC(=O)CCCCCCC(=O)NO)cc3)nc(NC3CCN(Cc4ccc(F)cc4)CC3)c2cc1OC"
  result_comparator: "="
  pIC50: 8.10
- compound: "COc1ccc(Cl)cc1C(=O)NCCc1cccc(/C=C/C(=O)NO)c1"
  result_comparator: "="
  pIC50: 7.40
- compound: "O=C(NO)c1ccc(CN(CCO)C(=O)Cc2ccccc2)cc1"
  result_comparator: "="
  pIC50: 6.42
- compound: "CN1CCN(CCNC(=O)c2ccc(C(=O)NO)cc2)CC1"
  result_comparator: "="
  pIC50: 5.87
- compound: "O=C(NO)c1ccc(CN2C(=O)CN(CCc3ccccc3)C2=O)cc1"
  result_comparator: "="
  pIC50: 7.66
- compound: "Nc1nc2cc(-c3nn(CC4CCN(c5ncc(C(=O)NO)cn5)CC4)c4ncnc(N)c34)ccc2o1"
  result_comparator: "="
  pIC50: 7.07
- compound: "CC[C@H](Nc1ncnc2[nH]cnc12)c1nc2cccc(F)c2c(=O)n1Cc1ccc(C(=O)NO)cc1"
  result_comparator: "="
  pIC50: 7.35
- compound: "Cc1[nH]c2ccccc2c1C1=CCC(NCc2ccc(OCC(=O)NO)cc2F)CC1 (centres undefined)"
  result_comparator: "="
  pIC50: 7.89
